Provenance of the data: patent US20090018093

Test system: Immunoglobulin E (IgE) (Homo sapiens), P01854-1
Sequence (P01854 other isoform, or with tags, fused parts or gaps): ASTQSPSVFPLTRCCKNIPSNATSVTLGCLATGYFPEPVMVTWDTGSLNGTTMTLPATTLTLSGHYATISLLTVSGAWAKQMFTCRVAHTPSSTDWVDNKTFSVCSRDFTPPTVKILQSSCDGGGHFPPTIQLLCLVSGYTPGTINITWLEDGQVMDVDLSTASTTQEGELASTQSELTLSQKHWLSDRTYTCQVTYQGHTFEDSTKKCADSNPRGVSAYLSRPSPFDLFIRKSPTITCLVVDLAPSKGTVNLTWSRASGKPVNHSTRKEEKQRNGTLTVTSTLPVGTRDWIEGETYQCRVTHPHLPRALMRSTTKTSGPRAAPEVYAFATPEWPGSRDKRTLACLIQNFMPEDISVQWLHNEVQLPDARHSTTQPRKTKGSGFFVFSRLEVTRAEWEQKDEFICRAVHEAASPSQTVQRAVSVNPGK
experiment notes: filter
Recorded pKd values for a group of sequences are listed next.
Schema: pKd number; meaning minus log10 of the concentration expressed in molar units.

Guide cases for pKd, answers given:
| biopolymer sequence | assay target | quantity kind | value |
| --- | --- | --- | --- |
| GGGGTACCTTTATCCGTTTCTCCTAGTGGGGTGCCCC [DNA clone SEQ 132] | Immunoglobulin E (IgE) (Homo sapiens), P01854-1 | pKd | 9.40 |
| GGGGCAGCTTTATCCGTTCCTCCTAGTGGGCTGCCTC [DNA clone SEQ 131] | Immunoglobulin E (IgE) (Homo sapiens), P01854-1 | pKd | 9.52 |
| GGGCTACTTTATCCGTCCCTCCTAGTGGGTAGCCCC [DNA clone SEQ 140] | Immunoglobulin E (IgE) (Homo sapiens), P01854-1 | pKd | 9.70 |
| GGGGCACATTCATCCGTCCCTCCTAGTGGTGTGCTCC [DNA clone SEQ 128] | Immunoglobulin E (IgE) (Homo sapiens), P01854-1 | pKd | 9.30 |
| GGGGTATGTTGATCCGTCCCTCCTAGTGGCATGCCCC [DNA clone SEQ 133] | Immunoglobulin E (IgE) (Homo sapiens), P01854-1 | pKd | 9.15 |
| GGCGGCAGCTTTATCCGTACCTCCCAGTGGGCTGCTCC [DNA clone SEQ 149] | Immunoglobulin E (IgE) (Homo sapiens), P01854-1 | pKd | 9.10 |
| GGGGCTACTTGATCCGTCCCTCCTAGTGGGTAGCCCC [ARC477] | Immunoglobulin E (IgE) (Homo sapiens), P01854-1 | pKd | 9.22 |
| GGGGCTACTTTATCCGTACCTCCCAGTGGGTAGCCCC [ARC476] | Immunoglobulin E (IgE) (Homo sapiens), P01854-1 | pKd | 9.70 |

Next sequence, pKd to be filled in.
Input: Reported pKd for Immunoglobulin E (IgE) (Homo sapiens), P01854-1, given GGGGCTACTTCATCCGTCCCTCCTAGTGGGTAGCCCC [ARC478] ?
Output: 9.40

* * *

Tested on: Immunoglobulin E (IgE) (Homo sapiens), P01854-1
experiment notes: inhibition
experimental conditions: 2'-F C,U; ELISA FceR1-Fc; FACS 9.9 nM (Table 25)
quantity kind: IC50
Be sure to follow the number with its unit.

Input: Could you share which IC50 value was measured for GGGAAAAGCGAAUCAUACACAAGAGUGCCGAGGCAUUGCUUGGUAUGGUUCCGGUCUUGUCGGGGCUCCGCCAGAGACCAACCGAGAA [rRfY clone SEQ 19] ?
Output: 7.4 nM

* * *

Test system: Immunoglobulin E (IgE) (Homo sapiens), P01854-1
experiment notes: filter
experimental conditions: 2'-OMe at 14; 3' idT [14 (2'-OMe C); 38 (3' inverted dT)]; DPBS Mg/Ca, BSA
quantity kind: pKd
In textbook form, pKd equals minus log to base ten of the concentration in mol/L.

Input: Form field: reported pKd of GGGGCTACTTTATCCGTTCCTCCTAGTGGGTAGCCCCT [ARC1278]
Output: 8.70

* * *

Test system: Immunoglobulin E (IgE) (Homo sapiens), P01854-1
experiment notes: inhibition
experimental conditions: 2'-F C,U; ELISA FceR1-Fc; FACS 17.3 nM (Table 25)
quantity kind: pIC50
Convention used: pIC50 is expressed as -log10 of the molar concentration.

Input: For GGGAAAAGCGAAUCAUACACAAGAGGUCUUACAGAUCCUGUGUAGUGGUUCGAUACAUGCGGGGCUCCGCCAGAGACCAACCGAGAA [rRfY clone SEQ 14] , what is its reported pIC50?
Output: 7.57
